All figures here come from patent US11739074B2.

- System Tested: NRAS G12C (Homo sapiens, UniProt P01111+P62937, G12C)
- Construct: His6
- Sequence (P01111 whole entry G12C): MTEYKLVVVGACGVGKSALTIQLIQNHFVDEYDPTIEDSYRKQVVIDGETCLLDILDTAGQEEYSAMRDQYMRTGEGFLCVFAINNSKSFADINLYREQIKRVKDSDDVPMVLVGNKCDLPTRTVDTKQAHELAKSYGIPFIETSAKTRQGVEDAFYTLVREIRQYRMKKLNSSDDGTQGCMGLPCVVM
- Sequence (P62937 whole entry): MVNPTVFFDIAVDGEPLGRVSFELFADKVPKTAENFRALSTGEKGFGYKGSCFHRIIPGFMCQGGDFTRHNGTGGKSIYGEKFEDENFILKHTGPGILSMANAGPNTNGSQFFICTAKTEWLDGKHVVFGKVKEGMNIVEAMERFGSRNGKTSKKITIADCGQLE
- Protocol Text: Ras-Raf disruption/FRET/MOA assay, NRAS G12C
- Assay type: biochemical
- Condition Summary: NRAS G12C FRET data IC50, NRAS G12C
- Source text: Disruption of B-Raf Ras-Binding Domain (BRAF^RBD) Interaction with K-Ras by Compounds of the Invention (Also Called a FRET Assay or an MOA Assay) Note—The following protocol describes a procedure for monitoring disruption of K-Ras G12C (GMP-PNP) binding to BRAF^RBD by a compound of the invention. This protocol may also be executed substituting other Ras proteins or nucleotides, such as K-Ras G12D and K-Ras G13D. […]
pIC50: −log10 of the molar value.
The following molecules are shown together with reported pIC50 values.

[Q] Identify measured pIC50 associated with CCn1c(-c2cccnc2[C@H](C)OC)c2c3cc(ccc31)-c1cc(O)cc(c1)C[C@H](NC(=O)[C@H](C(C)C)N(C)C(=O)CN(C)C(=O)[C@H]1N[C@H]1C1CC1)C(=O)N1CCC[C@H](N1)C(=O)OCC(C)(C)C2
[A] 7.00 to 8.00

Please turn your attention to the following entry.
[Q] Identify measured pIC50 associated with CCn1c(-c2cnccc2COC)c2c3cc(ccc31)-c1cc(O)cc(c1)C[C@H](NC(=O)[C@H](C(C)C)N(C)C(=O)CN(C)C(=O)[C@@H]1CN1Cc1ccccc1)C(=O)N1CCC[C@H](N1)C(=O)OCC(C)(C)C2 (some centres unmarked)
[A] 7.00 to 8.00
